For each of the molecules below, state its half-life.
assay: Pharmacokinetic evaluation in ICR mice after intragastric administration (plasma, LC/MS/MS); assay type: in vivo; settings: mouse, po, male ICR mice, i.g., 20 mg/kg, read-out: Half-life T1/2 (converted)
Report only the number, with the unit h understood.

Using the record for CCn1c(CN2Cc3ccccc3C2)ccc(OCC2CCN(S(N)(=O)=O)CC2)c1=O , report its half-life.
1.22

Using the record for CS(=O)(=O)N1CCC(COc2coc(CN3Cc4ccccc4C3)cc2=O)CC1 [Comparative Example 1, reference compound] , report its half-life.
1.87

Using the record for Cn1c(CN2Cc3ccccc3C2)ccc(OCC2CCN(S(C)(=O)=O)CC2)c1=O , report its half-life.
0.708

====

For each of the molecules below, state its AUC(0-t).
assay: Pharmacokinetic evaluation in ICR mice after intragastric administration (plasma, LC/MS/MS); type: in vivo; conditions: mouse, po, male ICR mice, i.g., 20 mg/kg, read-out: Area under the curve AUC0-t
Report only the number, with the unit ng·h/mL understood.

Using the record for Cn1c(CN2Cc3ccccc3C2)ccc(OCC2CCN(S(C)(=O)=O)CC2)c1=O , report its AUC(0-t).
9950

Using the record for CS(=O)(=O)N1CCC(COc2coc(CN3Cc4ccccc4C3)cc2=O)CC1 [Comparative Example 1, reference compound] , report its AUC(0-t).
4330

Using the record for CCn1c(CN2Cc3ccccc3C2)ccc(OCC2CCN(S(N)(=O)=O)CC2)c1=O , report its AUC(0-t).
13600

====

molecular target: CYP11A1 (Homo sapiens); construct: host or cells: NCI-H295R human adrenocortical cancer cells; experiment: Pregnenolone synthesis inhibition in NCI-H295R cells (pregnenolone ELISA of culture supernatant); type: cell-based; details: 24 hours incubation, pregnenolone in culture supernatant by ELISA
Sequence (P05108 40-521): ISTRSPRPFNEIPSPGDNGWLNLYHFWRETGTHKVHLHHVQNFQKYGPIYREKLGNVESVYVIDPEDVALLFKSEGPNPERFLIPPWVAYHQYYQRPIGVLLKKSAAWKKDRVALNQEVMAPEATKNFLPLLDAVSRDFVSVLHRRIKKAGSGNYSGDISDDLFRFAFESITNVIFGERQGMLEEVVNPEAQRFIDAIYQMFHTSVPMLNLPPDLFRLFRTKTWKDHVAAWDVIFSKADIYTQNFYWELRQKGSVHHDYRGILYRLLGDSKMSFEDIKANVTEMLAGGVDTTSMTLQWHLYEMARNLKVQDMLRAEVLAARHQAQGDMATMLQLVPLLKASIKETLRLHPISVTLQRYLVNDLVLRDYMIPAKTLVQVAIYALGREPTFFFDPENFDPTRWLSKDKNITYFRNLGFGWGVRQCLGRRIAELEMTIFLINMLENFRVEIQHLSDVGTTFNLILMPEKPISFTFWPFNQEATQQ
// NB: equality with 4 nM counts as not met; only IC50 strictly below is met

Is 4 nM strictly greater than the compound's reported IC50? compound: CCn1c(CN2Cc3ccccc3C2)ccc(OCC2CCN(S(=O)(=O)C3CC3)CC2)c1=O
met

Is 4 nM strictly greater than the compound's reported IC50? compound: [2H]C([2H])([2H])n1c(CN2Cc3ccc(C(F)(F)F)cc3C2)ccc(OCC2CCN(S(C)(=O)=O)CC2)c1=O
not met

Is 4 nM strictly greater than the compound's reported IC50? compound: CN(C)S(=O)(=O)N1CCC(COc2ccc(CN3Cc4ccccc4C3)n(C)c2=O)CC1
met

Is 4 nM strictly greater than the compound's reported IC50? compound: Cn1c(CN2Cc3ccc(F)cc3C2)ccc(OCC2CCN(S(C)(=O)=O)CC2)c1=O
not met

Is 4 nM strictly greater than the compound's reported IC50? compound: CCn1c(CN2Cc3ccccc3C2)ccc(OCC2CCN(S(=O)(=O)C(F)(F)F)CC2)c1=O
met

Is 4 nM strictly greater than the compound's reported IC50? compound: [2H]C([2H])([2H])n1c(CN2Cc3ccc(C(F)(F)F)cc3C2)ccc(OCC2CCN(S(=O)(=O)C3CC3)CC2)c1=O
not met

Is 4 nM strictly greater than the compound's reported IC50? compound: CCn1c(CN2Cc3ccccc3C2)ccc(OCC2CCN(S(=O)(=O)NC)CC2)c1=O
not met

Is 4 nM strictly greater than the compound's reported IC50? compound: CCn1c(CN2Cc3ccccc3C2)ccc(OCC2CCN(S(=O)(=O)NS(N)(=O)=O)CC2)c1=O
met
